System: UACC-62 melanoma
experiment.description: NCI tumour cell line growth inhibition, 48 h
// label = 1 (yes) if TGI is not less than 8 µM, otherwise 0 (no)

* O=c1cc(-c2nc3ccccc3[nH]2)[nH]c2nc(-c3nc4ccccc4[nH]3)cc(-c3ccc(Cl)cc3)c12 | 1 (yes)
* O=C1C2Nc3ccccc3SC2C(=O)N1c1cccc([N+](=O)[O-])c1 (stereo not given) | 1 (yes)
* Cc1nc(N)sc1C(=O)/C=C/c1ccc([N+](=O)[O-])cc1 | 1 (yes)
* C=C1CC(C/C=C(\C)CC2CC(=C)C(=O)O2)OC1=O (stereo not given) | 1 (yes)
* CCOC(=O)C(Cc1cn(S(=O)(=O)c2ccc(C)cc2)cn1)P(=O)(OCC)OCC (stereo not given) | 1 (yes)
* Cc1cc(-c2nc3cc(F)ccc3s2)ccc1NC(=O)C(C)N (stereo not given) | 0 (no)
* CCCCCc1c(C)[nH]c(/C=c2\[nH]/c(=C3/C=c4ccccc4=N3)cc2OC)c1C | 0 (no)
* CC1(C)CC2CC(C)(CN2c2ncnc3ccc(Br)cc23)C1 (stereo not given) | 1 (yes)
* CN1CCN(c2ccc3nc4c(nc3c2C(F)(F)F)C(=O)c2ncccc2C4=O)CC1 | 0 (no)
* ClC1=C(Cl)C(Cl)=C(Cl)C1=Cc1ccc(Cl)cc1 | 0 (no)

---

System: M14 melanoma
experiment.description: NCI tumour cell line growth inhibition, 48 h
TGI values by entry
endpoint.name: TGI (µM)

* CC(=O)OCC(=O)C1(O)C(C)CC2C3C=C(C)C4=Cc5c(cnn5-c5ccccc5)CC4(C)C3C(O)CC21C (stereo not given) | 3.69
* COc1ccc(C2C(Cl)C(=O)N2NC(=O)c2ccc(N)cc2)cc1OC (stereo not given) | 22.6
* Nc1ccc(C(=O)NN2C(=O)C(Cl)C2c2cccc([N+](=O)[O-])c2)cc1 (stereo not given) | 39.6
* CCCCCCCCCC(=O)CC(=O)c1c(O)cc(O)cc1O | 39
* N#CSCC(=O)c1ccc(Cl)cc1 | 15.1
* C/C(=N\Nc1cccc(Cl)n1)c1ccccn1 | 14.3
* Oc1[nH]c2ccc(Cl)cc2c1/C=c1/ccc2c(c1)N=C(c1cc(F)cc(F)c1)N=2 | 5.66
* COc1ccc2[nH]c3c(C)c4cnccc4c(C)c3c2c1 | 2.54
* O=c1cc(-c2nc3ccccc3[nH]2)[nH]c2nc(-c3nc4ccccc4[nH]3)cc(-c3ccc(Cl)cc3)c12 | 62.5
* C[N+]1=c2c3cccc4cccc(c(=O)n2CCC1)c43 | 33.2
* CC[C@H](C)[C@H](NC(=O)C12CC(NC(C)=O)(C1)C2)C(=O)N(C)[C@H](C[C@@H](OC(C)=O)c1nc(C(=O)N[C@@H](Cc2ccccc2)C[C@H](C)C(=O)OC)cs1)C(C)C | 1.88
* C[C@@H](Oc1cc(-c2cnn(C3CC4(CCCNC4)C3)c2)cnc1N)c1c(Cl)ccc(F)c1Cl (stereo not given in full) | 2.66

---

Test system: UACC-257 melanoma
experiment.description: NCI tumour cell line growth inhibition, 48 h
TGI values by entry
endpoint.name: TGI (µM)

* COc1ccc(-n2cc(-c3ccc(OC)c(OC)c3)nc2SCc2ccccc2)cc1Cl | 38.3
* O=C1c2ccccc2C(=O)c2sc(Nc3ccc(Cl)c(Cl)c3)nc21 | 8.63

---

Tested on: HT29 colon
experiment.description: NCI tumour cell line growth inhibition, 48 h
endpoint.name: TGI

* CC(C)(C)C(=O)[CH-]C(=O)C(F)(F)C(F)(F)C(F)(F)F.CC(C)(C)C(=O)[CH-]C(=O)C(F)(F)C(F)(F)C(F)(F)F.[O-]CC1OC(O)C(O)C(O)C1O.[O-]CC1OC(O)C(O)C(O)C1O.[Ti+4] | > 100 µM
* COC(=O)/C(=N\O)C(C(=O)C=C(C)C)C(=O)C(=O)Nc1ccccc1C (stereo unspecified) | > 100 µM
* Cc1cc(C)c2[s+]snc2c1 | > 100 µM
* CC1=NN(c2ccccc2)C(=O)C1N=Nc1ccc(Br)c(C)c1 (stereo unspecified) | > 100 µM
* C[N+]1=c2c3cccc4cccc(c(=O)n2CCC1)c43 | 52.5 µM
* CCCCCCC1N=C(N)N=C(N)N1c1ccc(Cl)cc1 (stereo unspecified) | 16.8 µM
* CCOC(=O)[C@H]1C[C@]23CN(C(=O)OC(C)(C)C)CC[C@H]2CCC2(SCCCS2)[C@@H]3N1C | 53.3 µM
* CC1CC(NN(C)C)C2(C(N)=O)C(N)=NC(=O)C12C#N (stereo unspecified) | > 100 µM
* C=C=[CH][Sn]([c]1ccccc1)([c]1ccccc1)[c]1ccccc1 | 2.45 µM
* O=C(/N=C/c1c(O)c2ccccc2oc1=O)NC1CCCCC1 | > 100 µM
* O=C(NC/C(Cl)=C/Cl)Nc1cccc2c1CCCC2 | > 100 µM
* CCCCOc1ccc(S(=O)(=O)/N=C(\NN)Nc2ccc(Cl)cc2)cc1 | 48.9 µM
* CC1C(=O)C23OC[C@@]1(C)C1(O)CC[C@@H](C)[C@]21CC3=O (stereo partly specified) | > 100 µM
* c1ccc2c3nnc(c2c1)SCCSCCCSCCS3 | > 100 µM
* O=C1C=C(Nc2ccccc2C(=O)CC(=O)C(=O)Nc2ccc(Cl)c(Cl)c2)c2ccccc2C1=O | > 100 µM
* Cc1cc(Br)cc(C)c1NC(=O)C(=O)C1C(=O)C(CC2C(=O)c3ccccc3C2=O)C(=O)CC1(C)C (stereo unspecified) | > 100 µM
* C[N+](C)(Cc1ccc(NC(=O)CCCC(=O)ON2C(=O)CCC2=O)cc1)c1ccccc1 | > 100 µM
* CC(C)NC(=O)O/N=C1\CCC2[C@@H]3CC=C4C[C@@H](OC(=O)NC(C)C)CC[C@]4(C)C3CC[C@]12C (stereo partly specified) | 8.87 µM
* Brc1ccc(Br)nn1 | > 22.3 µM
* CCOc1ccc(NC(=O)CCC(=O)NN)cc1 | > 100 µM
* COC(=O)c1cc(C)n(NC(=O)OC(C)(C)C)c1C | > 100 µM

---

Test system: U251 CNS
experiment.description: NCI tumour cell line growth inhibition, 48 h
endpoint.name: TGI

* COC(=O)/C(=N\O)C(C(=O)C=C(C)C)C(=O)C(=O)Nc1ccccc1C (stereo not given) | > 100 µM
* NC(N)=N/N=C/c1ccc(O)c(C(=O)O)c1 | > 100 µM
* CC(C)N(C[C@H]1O[C@@H](n2cnc3c(N)ncnc32)[C@H](O)[C@@H]1O)C1CC(CCc2nc3ccc(C(C)(C)C)cc3[nH]2)C1 (stereo not given in full) | > 100 µM
* CC1(C)CC2CC(C)(CN2c2ncnc3ccc(Br)cc23)C1 (stereo not given) | 26.1 µM
* COC1=CC(=O)c2ccccc2C1(C)C1=NC(C)(C)CO1 (stereo not given) | > 100 µM
* CCC[CH2][Sn]1([CH2]CCC)[O]C(=O)c2cc(C)ccc2[O]1 | 1.54 µM
* CN(CC#N)C(=O)Cc1ccc([N+](=O)[O-])cc1 | > 10 µM
* C[N+](C)(Cc1ccc(NC(=O)CCCC(=O)ON2C(=O)CCC2=O)cc1)c1ccccc1 | > 100 µM
* CC1CC(NN(C)C)C2(C(N)=O)C(N)=NC(=O)C12C#N (stereo not given) | > 100 µM
* CN(NC(=O)c1cccs1)C1=NCCN1 | > 100 µM

---

Test system: KM12 colon
experiment.description: NCI tumour cell line growth inhibition, 48 h
// label = Criterion met if TGI is not less than 50 µM, otherwise Criterion not met

• CC[N+](CC)(CC)/C(=N/S(=O)(=O)c1cc(C)c(Cl)cc1S)[N-]S(=O)(=O)c1ccc(Cl)cc1 = Criterion met
• CC1=NN(c2ccccc2)C(=O)C1=C1SCCCS1 = Criterion met
• CN(NC(=O)CC(=O)NN(C)C(=S)c1ccc(Cl)cc1)C(=S)c1ccc(Cl)cc1 = Criterion met
• CO[C@@]12CC(=O)/C(=C(O)\C=C\c3ccccc3)C(=O)[C@]1(OC)Cc1ccccc1O2 = Criterion not met
• C=C(C)[C@@H]1CC[C@]2(C)[C@H](C=CC3=C4C[C@@](C)(CO)CC[C@]4(C)CC[C@]32C)[C@@]1(C)CCCN = Criterion not met
• Cc1cc(Br)cc(C)c1NC(=O)C(=O)C1C(=O)C(CC2C(=O)c3ccccc3C2=O)C(=O)CC1(C)C (stereo not given) = Criterion met
• O=C1/C(=C\c2c(-c3ccccc3)nn(-c3ccccc3)c2O)C(c2ccccc2)=NN1c1ccccc1 = Criterion met
• CC(C)(C)OC(=O)N/N=C(/N)c1ccccc1 = Criterion met
• CCOC(=O)C(Cc1cn(S(=O)(=O)c2ccc(C)cc2)cn1)P(=O)(OCC)OCC (stereo not given) = Criterion met
• COc1ccc(-n2c(=O)n(C)c(=O)n2-c2c(C)c(C)c(C)c(C)c2C)cc1 = Criterion met
• COc1ccc2c(c1)c1c3c(ccc4ncn2c43)N(CCN(C)C)CCN=1 = Criterion not met
• CC(=O)/C=C/C1=C(c2ccsc2)c2ccccc2CC1 = Criterion not met
• Cc1ccc(-c2cc(/C=N/O)on2)cc1 = Criterion met
• COC(=O)Nc1nc2ccc(Sc3ccccc3)cc2[nH]1 = Criterion not met
• CC12OC3CC(O1)C1(C=O)C4CCC5(C)C(c6ccc(=O)oc6)CCC5(O)C4CCC1(C3)O2 (stereo not given) = Criterion not met
• COC1=CC(=O)c2ccccc2C1(C)C1=NC(C)(C)CO1 (stereo not given) = Criterion met
• Cc1c(N2C(=O)/C(=C\c3ccc(N(C)C)cc3)N=C2c2ccccc2)c(=O)n(-c2ccccc2)n1C = Criterion met
• COc1cccc(Nc2nccc(Nc3ccc4[nH]ncc4c3)n2)c1 = Criterion not met
